# System: Yap1 mRNA
# ASSAY_PROCEDURE: Dose-dependent inhibition of human Yap1 in A-431 cells (Example 8, 10,000 cells per well, RTS4814)
# Type: cell-based
# STATED_CONDITIONS: 125.0 nM; A-431 cells, 10,000 cells per well, free uptake, approximately 48 hours, RTS4814
Strand notation (5' to 3'): a small letter for the sugar, then the base; units joined by * are phosphorothioate-linked, units joined directly phosphodiester-linked; [ ] holds rarer units or linkages, { } end groups; capitals alone tell only the bases. k = constrained ethyl (cEt); [5mC] = 5-methylcytosine; d = 2'-deoxy (DNA)
PROPERTY: Yap1 mRNA, % UTC (% UTC)
Give just the number in % UTC; leave the unit off.

Look up and report measured Yap1 mRNA, % UTC for this entry: 1074313 (antisense kT*kG*kA*dT*dA*dT*dT*d[5mC]*d[5mC]*dG*d[5mC]*dA*dT*kT*kG*k[5mC]) [compound 1074313]
21

Look up and report measured Yap1 mRNA, % UTC for this entry: 1075242 (k[5mC]*kA*kG*dG*dG*dA*dT*dA*dA*dT*dT*dA*d[5mC]*kT*kA*kA; antisense) [compound 1075242]
39

Look up and report measured Yap1 mRNA, % UTC for this entry: 1076323 (k[5mC]*kA*kA*dT*dT*dT*dA*d[5mC]*dA*dA*dG*dT*dG*kA*kG*k[5mC]; antisense) [compound 1076323]
35

Look up and report measured Yap1 mRNA, % UTC for this entry: 1074639 (antisense kT*kA*kG*dA*dT*dT*dT*dT*dG*dT*dA*dA*dT*kT*kG*kG) [compound 1074639]
18

Look up and report measured Yap1 mRNA, % UTC for this entry: 1074629 (DNA kG*kA*kG*dA*dT*dT*dT*dT*dA*dT*dG*d[5mC]*d[5mC]*kT*kG*kT; antisense) [compound 1074629]
5

Look up and report measured Yap1 mRNA, % UTC for this entry: 1075143 (k[5mC]*k[5mC]*kT*dT*dA*dT*dT*dA*dG*dT*d[5mC]*dA*dG*kT*kT*k[5mC]; antisense) [compound 1075143]
21

Look up and report measured Yap1 mRNA, % UTC for this entry: 1074413 (kA*k[5mC]*kT*dG*dT*dG*dA*dA*dA*dG*dA*dG*dG*kT*k[5mC]*kA; antisense) [compound 1074413]
19

* * *

In this section we review reported TP values for a set of substances.
# ASSAY_PROCEDURE: Cynomolgus monkey tolerability, kidney and liver function markers (Example 34)
# STATED_CONDITIONS: cynomolgus monkeys, 35 mg/kg subcutaneously, day 44
Give just the number in g/dL; leave the unit off.

Reference set (3 entries):
# SUBSTANCE, TP, g/dL
rows = [
    ("1076453 (GTAATATTGCAATCTG; 3-10-3 cEt gapmer, further chemistry not given here) [compound 1076453]", 7.0),
    ("1198728 (TATTAGAGTATGTGGC; modified gapmer, further chemistry not given here) [compound 1198728]", 7.3),
    ("958499 (ATTAGAGTATGTGGCA; 3-10-3 cEt gapmer, further chemistry not given here) [compound 958499]", 7.2),
]

Look up and report measured TP for this entry: 1198623 (CTAAGTAAGGTTTCCC; modified gapmer, further chemistry not given here) [compound 1198623]
7.2

Look up and report measured TP for this entry: 1198872 (TGTATGTCAGAAGAGT; chemically modified gapmer, further chemistry not given here) [compound 1198872]
7.1

Look up and report measured TP for this entry: 1197270 (TTAAAGTGTATGTCAG; cEt gapmer with 2'-OMe nucleoside, phosphorothioate, further chemistry not given here) [compound 1197270]
6.8

Every entry's value here was drawn from patent US11214803B2.
